- experiment.notes: small-molecule binders of probe aInhba, primary screen, biochemical, small-molecule microarray, 635/667 nm fluorescence (AID 1148);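 note: score merges 667nm spot fluorescence with signal-to-noise for antibody binding to printed compounds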
- test.parameters: higher = more signal
measured.quantity: composite z-score

[N-]=[N+]=NCc1ccccc1C[C@@]1(C(=O)O)N=C(c2ccc(OCCCO)cc2)O[C@@H]1c1ccccc1
-0.0421
COC(=O)C1=CC(c2ccc(CO)cc2)=CC(c2cccs2)N(C)C=C1C(=O)OC (centres undefined)
-0.0471
C=CCC(OC(C)=O)[C@@H]1[C@@H](N(Cc2cc3ccccc3o2)C(=O)c2ccc(-c3ccccc3)cc2)c2cc(OCCCO)ccc2N1C(=O)c1ccc(-c2ccccc2)cc1 (some centres undefined)
0.0497
C=CC[C@]1(C(=O)N(C)C)N=C(c2ccc(OCCCO)cc2)O[C@H]1c1ccccc1CN=[N+]=[N-]
0.0388
